subjectOfTest: α1b-AR (Homo sapiens, UniProt P35368)
Construct: expressed in transfected cells; host or cells: COS-7 cells (African Green monkey kidney), membranes
Sequence (P35368 whole entry): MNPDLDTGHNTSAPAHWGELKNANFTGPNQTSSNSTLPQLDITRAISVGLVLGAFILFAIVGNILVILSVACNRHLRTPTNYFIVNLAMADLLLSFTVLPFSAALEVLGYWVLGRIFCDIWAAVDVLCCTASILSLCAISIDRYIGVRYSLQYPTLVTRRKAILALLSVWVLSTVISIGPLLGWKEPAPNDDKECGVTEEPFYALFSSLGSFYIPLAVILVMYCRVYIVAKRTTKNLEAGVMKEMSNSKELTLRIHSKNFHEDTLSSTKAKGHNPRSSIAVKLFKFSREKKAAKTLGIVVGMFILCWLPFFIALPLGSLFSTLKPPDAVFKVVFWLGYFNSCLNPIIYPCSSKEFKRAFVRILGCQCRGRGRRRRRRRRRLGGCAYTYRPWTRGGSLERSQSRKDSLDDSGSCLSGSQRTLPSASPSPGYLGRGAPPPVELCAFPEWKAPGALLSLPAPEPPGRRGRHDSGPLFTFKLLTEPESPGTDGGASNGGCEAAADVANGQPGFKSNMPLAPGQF
experimentalDetails: α1-Adrenergic Receptor Binding Assay, 125I-HEAT radio-ligand binding, transfected COS-7 cell membranes, α1b subtype
settings: average value, COS-7 membranes, read-out: Alpha 1 Ki α1b (1) Average Value
valueKind: Ki (nM)

// below: answered molecules
[
  {
    "molecule": "COc1ccccc1C1CCN(C(=O)C2=NOC(CN3CCN(c4ccccc4OC(C)C)CC3)C2)CC1 (stereo not drawn)",
    "unitsText": "nM",
    "Ki": 254
  },
  {
    "molecule": "CC(C)Oc1ccccc1N1CCN(CC2CC(C(=O)N3CCC(C(=O)c4ccc(F)cc4)CC3)=NO2)CC1 (single isomer, unassigned) [Compound 40]",
    "unitsText": "nM",
    "Ki": 531
  },
  {
    "molecule": "CC(C)Oc1ccccc1N1CCN(CC2CC(CN3CCCCC3=O)=NO2)CC1 (single isomer, unassigned) [Compound 3]",
    "unitsText": "nM",
    "Ki": 215
  },
  {
    "molecule": "CC(C)Oc1ccccc1N1CCN(CC2CC(C(=O)N3CCc4cc(Br)ccc43)=NO2)CC1 (stereo not drawn)",
    "unitsText": "nM",
    "Ki": 191
  },
  {
    "molecule": "CC(C)Oc1ccccc1N1CCN(CC2CC(CN3CCCCC3=O)=NO2)CC1 (stereo not drawn) [Compound 1]",
    "unitsText": "nM",
    "Ki": 82
  }
]

A. CC(C)Oc1ccccc1N1CCN(CC2CC(C(=O)N3CCC(Oc4ccccn4)CC3)=NO2)CC1 (stereo not drawn)
B. Cc1ccc2c(c1)CCN2C(=O)C1=NOC(CN2CCN(c3ccccc3OC(C)C)CC2)C1 (stereo not drawn)
C. CC(C)Oc1ccccc1N1CCN(CC2CC(C(=O)N3CCC(C(=O)c4ccc(F)cc4)CC3)=NO2)CC1 (single isomer, unassigned) [Compound 41]
D. CC(C)Oc1ccccc1N1CCN(CC2CC(C(=O)N3CCc4cc(Cl)ccc43)=NO2)CC1 (stereo not drawn)
Request: Please produce an ascending ranking of these molecules based on Ki. Answer format: list of labels, ordered as asked.
Response: B, D, A, C
(B: 71 nM, D: 133 nM, A: 264 nM, C: 1690 nM)

P. COc1cccc(CNc2ccc3c(c2)N(CC2=NOC(CN4CCN(c5ccccc5OC(C)C)CC4)C2)CC3)c1 (stereo not drawn)
Q. CC(C)Oc1ccccc1N1CCN(CC2CC(CN3CCc4ccc(N)cc43)=NO2)CC1 (stereo not drawn)
Request: Consider entries P and Q . Which has the numerically lower Ki? Mark your answer with the label of the selected entry.
Response: P

----------
subjectOfTest: α1b-AR (Homo sapiens, UniProt P35368)
Construct: expressed in transfected cells; host or cells: COS-7 cells (African Green monkey kidney), membranes
experimentalDetails: α1-Adrenergic Receptor Binding Assay, 125I-HEAT radio-ligand binding, transfected COS-7 cell membranes, α1b subtype
settings: individual values, COS-7 membranes, read-out: Alpha 1 Ki α1b (2) Individual Values
valueKind: Ki (nM)

// below: answered molecules
[
  {
    "molecule": "CC(C)Oc1ccccc1N1CCN(CC2CC(C(=O)N3CCC(Oc4ccc(Cl)cc4)CC3)=NO2)CC1 (centres unmarked)",
    "unitsText": "nM",
    "Ki": 255
  },
  {
    "molecule": "CC(C)Oc1ccccc1N1CCN(CC2CC(C(=O)N3CC(C)(C)c4cc(Br)ccc43)=NO2)CC1 (single isomer, unassigned) [Compound 42]",
    "unitsText": "nM",
    "Ki": 289
  },
  {
    "molecule": "CC(=O)N1CCc2ccc(NC(=O)C3=NOC(CN4CCN(c5ccccc5OC(C)C)CC4)C3)cc21 (centres unmarked)",
    "unitsText": "nM",
    "Ki": 101
  }
]

P. CC(C)Oc1ccccc1N1CCN(CC2CC(C(=O)N3CCOCC3)=NO2)CC1 (centres unmarked) [Compound 28]
Q. CC(C)Oc1ccccc1N1CCN(CC2CC(C(=O)N3CCc4ccc(NCc5ccccc5F)cc43)=NO2)CC1 (centres unmarked)
R. CC(C)Oc1ccccc1N1CCN(CC2CC(CN3CCCCC3)=NO2)CC1 (centres unmarked)
S. CC(C)Oc1ccccc1N1CCN(CC2CC(C(=O)N3CCC(c4ccccc4)(c4ccccc4)CC3)=NO2)CC1 (centres unmarked)
Request: Order these by Ki, descending, and give the full ranking. Answer format: list of labels, ordered as asked.
Response: R, P, S, Q

----------
subjectOfTest: α1b-AR (Homo sapiens, UniProt P35368)
Construct: expressed in transfected cells; host or cells: COS-7 cells (African Green monkey kidney), membranes
experimentalDetails: α1-Adrenergic Receptor Binding Assay, 125I-HEAT radio-ligand binding, transfected COS-7 cell membranes, α1b subtype
settings: individual values, COS-7 membranes, read-out: Alpha 1 Ki α1b (2) Individual Values
valueKind: Ki (nM)

[
  {
    "molecule": "CC(C)Oc1ccccc1N1CCN(CC2CC(CN3CCCCC3=O)=NO2)CC1 (single isomer, unassigned) [Compound 3]",
    "subjectOfTest": "α1b-AR (Homo sapiens, UniProt P35368)",
    "unitsText": "nM",
    "endpointResult": 215
  },
  {
    "molecule": "CC(C)Oc1ccccc1N1CCN(CC2CC(C(=O)N3CCC(C(=O)c4ccc(F)cc4)CC3)=NO2)CC1 (single isomer, unassigned) [Compound 40]",
    "subjectOfTest": "α1b-AR (Homo sapiens, UniProt P35368)",
    "unitsText": "nM",
    "endpointResult": 531
  }
]

1. CC(C)Oc1ccccc1N1CCN(CC2CC(C(=O)N3CCC(C(=O)c4ccc(F)cc4)CC3)=NO2)CC1 (stereo not shown) [Compound 18]
2. CC(C)Oc1ccccc1N1CCN(CC2CC(C(=O)N3CCCc4ccccc43)=NO2)CC1 (stereo not shown)
Request: Consider entries 1 and 2 . Which has the numerically lower Ki? Mark your answer with the label of the selected entry.
Response: 2

----------
subjectOfTest: α1a-AR (Homo sapiens)
Construct: expressed in transfected cells; host or cells: COS-7 cells (African Green monkey kidney), membranes
Sequence (P35348 whole entry): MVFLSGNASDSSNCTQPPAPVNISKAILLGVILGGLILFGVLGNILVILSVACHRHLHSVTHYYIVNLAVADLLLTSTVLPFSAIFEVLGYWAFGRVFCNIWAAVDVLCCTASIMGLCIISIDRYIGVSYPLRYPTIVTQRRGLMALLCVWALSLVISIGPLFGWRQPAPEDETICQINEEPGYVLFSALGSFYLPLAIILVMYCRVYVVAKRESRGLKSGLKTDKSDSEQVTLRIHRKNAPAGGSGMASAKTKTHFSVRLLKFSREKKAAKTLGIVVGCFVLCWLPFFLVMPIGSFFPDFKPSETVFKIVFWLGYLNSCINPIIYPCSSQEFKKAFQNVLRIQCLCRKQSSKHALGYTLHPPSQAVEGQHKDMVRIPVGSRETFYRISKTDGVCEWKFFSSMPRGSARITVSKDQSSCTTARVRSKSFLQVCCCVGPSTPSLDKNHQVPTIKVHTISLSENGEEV
experimentalDetails: α1-Adrenergic Receptor Binding Assay, 125I-HEAT radio-ligand binding, transfected COS-7 cell membranes, α1a subtype
settings: individual values, COS-7 membranes, read-out: Alpha 1 Ki α1a (2) Individual Values
pKi: −log10 of the molar value.
valueKind: pKi

[
  {
    "compound": "CC(C)Oc1ccccc1N1CCN(CC2CC(C(=O)N3CCOCC3)=NO2)CC1 (stereo not drawn) [Compound 28]",
    "endpointResult": 8.52
  },
  {
    "compound": "CC(C)Oc1ccccc1N1CCN(CC2CC(CN3CCCCC3=O)=NO2)CC1 (single isomer, unassigned) [Compound 3]",
    "endpointResult": 8.60
  },
  {
    "compound": "CC(C)Oc1ccccc1N1CCN(CC2CC(C(=O)N3CCC(Oc4ccc(Cl)cc4)CC3)=NO2)CC1 (stereo not drawn) [Compound 34]",
    "endpointResult": 7.40
  },
  {
    "compound": "CC(C)Oc1ccccc1N1CCN(CC2CC(C(=O)N3CC(C)(C)c4cc(Br)ccc43)=NO2)CC1 (single isomer, unassigned) [Compound 43]",
    "endpointResult": 6.50
  },
  {
    "compound": "CC(C)Oc1ccccc1N1CCN(CC2CC(CN3CCCCC3=O)=NO2)CC1 (stereo not drawn) [Compound 1]",
    "endpointResult": 9.02
  },
  {
    "compound": "CC(C)Oc1ccccc1N1CCN(CC2CC(C(=O)N3CCN(c4ccccc4OC(C)C)CC3)=NO2)CC1 (stereo not drawn) [Compound 17]",
    "endpointResult": 7.79
  }
]

A. CC(C)Oc1ccccc1N1CCN(CC2CC(C(=O)N3CCc4ccc(N)cc43)=NO2)CC1 (stereo not drawn) [Compound 14]
B. CC(C)Oc1ccccc1N1CCN(CC2CC(C(=O)N3CCC(Oc4ccccc4)CC3)=NO2)CC1 (single isomer, unassigned) [Compound 38]
Request: Parameter check: reported pKi is higher for which label, A or B ? Mark your answer with the label of the selected entry.
Response: A

----------
subjectOfTest: α1a-AR (Homo sapiens)
Construct: expressed in transfected cells; host or cells: COS-7 cells (African Green monkey kidney), membranes
experimentalDetails: α1-Adrenergic Receptor Binding Assay, 125I-HEAT radio-ligand binding, transfected COS-7 cell membranes, α1a subtype
settings: individual values, COS-7 membranes, read-out: Alpha 1 Ki α1a (2) Individual Values
valueKind: Ki (nM)

A. CC(C)Oc1ccccc1N1CCN(CC2CC(C(=O)N3CCc4ccc(NCc5ccccc5F)cc43)=NO2)CC1 (stereo not drawn)
B. COc1ccccc1C1CCN(C(=O)C2=NOC(CN3CCN(c4ccccc4OC(C)C)CC3)C2)CC1 (stereo not drawn)
Request: Consider entries A and B . Which has the numerically lower Ki? Mark your answer with the label of the selected entry.
Response: A
(A: 9.6 nM, B: 19 nM)
